Data origin: the RNAGym collection of RNA variant scans (doi:10.1073/pnas.2313332121)

B1: TPR 5TU (parent)
chain: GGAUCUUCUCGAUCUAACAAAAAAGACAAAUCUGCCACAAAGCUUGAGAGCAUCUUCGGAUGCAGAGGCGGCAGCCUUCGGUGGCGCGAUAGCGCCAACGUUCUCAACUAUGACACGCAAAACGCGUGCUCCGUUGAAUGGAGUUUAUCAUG

# Variants of: B1
# assayProtocol: polymerase ribozyme fitness, log enrichment relative to wild type (log ratio); higher = more active; in vitro selection for triplet polymerase activity
This sample holds only a part of the variants without activity.
Can you tell me polymerase ribozyme fitness (log ratio) for the items I'm about to list?
Numbers only.

INSERT INTO results (mutantdesignation, assayendpoint, experimentalresult) VALUES
  ('A47C U53A G81A U104G', 'polymerase ribozyme fitness (log ratio)', -1.12),
  ('A17C A20C U53G G84A', 'polymerase ribozyme fitness (log ratio)', -2.28),
  ('A22U G126A', 'polymerase ribozyme fitness (log ratio)', 1.07),
  ('U31G C123G A142G', 'polymerase ribozyme fitness (log ratio)', -1.12),
  ('A26C U82A A137G', 'polymerase ribozyme fitness (log ratio)', -2.93);

Please look at the items below and tell me polymerase ribozyme fitness (log ratio) for each one, in order.
1. C69U C85G
2. U15G U31A
3. A19G C54G
4. U45A C116U
5. A19G C85U G94U G141U
6. U55A U82G
7. G59C C114U G128A A142U

-2.16
0.571
-1.84
-2.44
0.14
-0.931
-2.5

Lab note: U6A A26C A122C gave polymerase ribozyme fitness (log ratio) of -2.04
